Reported OD450 values follow for various binders
- target-under-test: Fc protein
- assay-procedure: phage ELISA on coated Fc protein

binder | OD450
phage clone No. 20 (C20) (VHH) VHH: QVQLVESGGGLVQPGGSLRLSCAASGSIFSINTMGWYRQAPGKQRELVATMHSTGSTNYADSVKGRFTISRDNAKKTVYLQMNSLEPDDTAVYYCHVDDTGWGTVDSWGQGTQVTVS | 0.133
phage clone No. 61 (S13) (VHH) VHH: QLQLVESGGGLVQPGGSLRLSCVVSGSIFAINTMGWYRQAPGKQRELVATMHSYGSTNYADSVKGRFTISRDNAKKTVYLQMNSLKPADTAVYYCHADDTGWGTVDSWGQGTQVTVSS | 0.094
phage clone No. 37 (C37) (VHH) VHH: QLQLVESGGGLVQAGGSLRLSCAASGLTFEDYAIGWFRQAPGKEREGISCIRIYDGNTYSAESVKGRFTISSDNAKNQVYLQINTLKPEDTAVYYCAAGSYYSCSVYPDYDMDYWGKGTLVTVSS | 0.11
phage clone No. 66 (S18) (VHH) VHH: QLQLVESGGGLVQPGGSLRLSCAASGSIFSINTMGWYRQAPGKQRELVATMTSHGSTNYADSVKGRFTISRDNSKNTVYLQMNSLKLQDTAVYYCNANDMGWGTVDAWGQGTLVTVSS | 0.081
phage clone No. 54 (S6) (VHH) VHH: QVQLVESGGGLVQPGGSLRLSCAVSGTIFSINTMGWYRQVPGKQRELVATITSSGSTKYADSVKGRFTVSRDNAKRTVFLQMDSLKPEDTAVYYCHANDVGWGTVNAWGQGTLVTVSS | 0.058
phage clone No. 2 (C2) (VHH) VHH: QVQLVESGGGLVQPGGSLRLSCAASGFTLDYYAIGWFRQAPGKEREGISCIRIYDGNTYSAESVKGRFTISSDNAKNQVYLQINTLKPEDTAVYYCAAGSYYSCSVYPDYDMDYWGKGTLVTVSS | 0.149
phage clone No. 53 (S5) (VHH) VHH: QVQLVESGGGLVQAGGSLRVSCAASGGTFSSTAMGWFRQAPGKEREFVAAISWSGGYTYYADSVRGRFTISRDNALNTVSLQMNSLKPEDTAVYYCAADISGLDTVAAGIFTEPNIDYWGKGTLVTVSS | 0.068
phage clone No. 45 (C45) (VHH) VHH: QVQLVESGGGLVQPGGSLRLSCAASGPIFSINTMGWYRQVPGKQRELVATMHSTGSTNYADSVKGRFTISRDNAKKTVYLQMNSLKPDDTAVYYCHVDDTGWGTVDSWGQGTQVTVSS | 0.115
